Compiled from multiple publications: pIC50 readings for UniProtKB Q13547.
// field semantics: pIC50 = negative decimal log of concentration (mol/L)

Please review the entries below; each comes with its answer.
compound	system name	pIC50
O=C(CCCCCCNCB1C=Cc2ccccc2N1)NO	UniProtKB Q13547	5.03
CC1(C)CCC(CN2CCN(c3ccc(C(=O)NS(=O)(=O)c4ccc(NCCNC(=O)c5ccc(/C=C/C(=O)NO)cc5)c([N+](=O)[O-])c4)c(Oc4cnc5[nH]ccc5c4)c3)CC2)=C(c2ccc(Cl)cc2)C1	UniProtKB Q13547	5.21
COc1ccc(-c2cnn(CCCCCC(=O)NO)n2)cc1	UniProtKB Q13547	5.00
O=C(NO)c1ccc(CNc2ccnc3ccccc23)cc1	UniProtKB Q13547	6.62
CCCCCCCCNNC(=O)c1ccc(CNC(=O)c2ccccc2)cc1	UniProtKB Q13547	5.69

Query: Provide value of pIC50 for this record tested with UniProtKB Q13547: `Cc1cccc2nc(SCc3ccc(C(=O)NO)cc3)n(-c3ccc(Cl)cc3)c(=O)c12`
Response: 5.64

Query: Provide value of pIC50 for this record tested with UniProtKB Q13547: `O=C(NO)c1ccc(Cn2c(=O)n(CCOCCOCCn3c(=O)c4ccccc4n(Cc4ccc(C(=O)NO)cc4)c3=O)c(=O)c3ccccc32)cc1`
Response: 5.50

----------
Compiled from multiple publications: pIC50 readings for Histone deacetylase 1 (Homo sapiens).
// field semantics: pIC50 = negative decimal log of concentration (mol/L)

Please review the entries below; each comes with its answer.
molecule	value measured
Cc1cccc2c(=O)c3c(NCCCCCC(=O)NO)ccc([N+](=O)[O-])c3[nH]c12	8.11
CCCCCCNNC(=O)c1ccc(CNC(=O)c2ccccc2)cc1	7.46

Query: Name the reported pIC50 value associated with the molecule O=C(CCCCCCNC(=O)c1ccc(N(C(=O)CCl)C(C(=O)NCc2ccccc2)c2ccc(Cl)c(Cl)c2)cc1)NO (centres unmarked)
Response: 6.80

Query: Name the reported pIC50 value associated with the molecule `CCCCCCCNNC(=O)c1ccc(CNC(=O)c2ccccc2)cc1`
Response: 6.38

Query: Name the reported pIC50 value associated with the molecule `Cc1cccc2nc(SCc3ccc(C(=O)NO)cc3)n(-c3ccccc3)c(=O)c12`
Response: 5.85

Query: Name the reported pIC50 value associated with the molecule `O=C(NO)c1ccc(Cn2c(=O)n(CCOCCOCCOCCn3c(=O)c4ccccc4n(Cc4ccc(C(=O)NO)cc4)c3=O)c(=O)c3ccccc32)cc1`
Response: 5.48

Query: Name the reported pIC50 value associated with the molecule `O=C(CCCCCCC(=O)NC[C@H]1CN(c2ccc(N3CCOCC3)c(F)c2)C(=O)O1)NO`
Response: 5.47

Query: Name the reported pIC50 value associated with the molecule `O=C(/C=C/c1ccc(C(=O)NO)cc1)OCB1C=Cc2ccccc2N1`
Response: 5.09

----------
Compiled from multiple publications: IC50 readings for Histone deacetylase 1 (Homo sapiens, UniProt Q13547).

smiles data	value measured
O=C(NO)c1ccc(B2Nc3ccccc3N2)cc1	> 35 µM
CC1(C)CCC(CN2CCN(c3ccc(C(=O)NS(=O)(=O)c4ccc(NCC5CCN(c6ccc(C(=O)NO)cc6)CC5)c([N+](=O)[O-])c4)c(Oc4cnc5[nH]ccc5c4)c3)CC2)=C(c2ccc(Cl)cc2)C1	> 30 µM
Nc1ccccc1NC(=O)c1cccc(C(=O)OCB2C=Cc3ccccc3N2)c1	> 35 µM

Query: Name the reported IC50 value associated with the molecule `O=C(NO)c1ccc(CNC[C@H]2CN(c3ccc(N4CCOCC4)c(F)c3)C(=O)O2)cc1`
Response: > 10 µM

Query: Name the reported IC50 value associated with the molecule `Nc1cc(F)ccc1NC(=O)c1ccc(CNCB2C=Cc3ccccc3N2)cc1`
Response: > 35 µM
